Entry source: PubChem BioAssay (NCI)

# Tested on: SR leukemia
# TEST_DESCRIPTION: NCI tumour cell line growth inhibition, 48 h
MEASURE_NAME: TGI

Study these solved cases before continuing.
| COMPOUND | TGI |
| --- | --- |
| Clc1ccc(-c2cc(-c3nc4ccccc4[nH]3)no2)cc1 | 59.7 µM |
| O=C(NC1CCN(Cc2ccccc2)CC1)c1ccccc1I | > 100 µM |

Incoming: Quick one: TGI for COc1ccc2c(c1)N(CCO)C1=C(C(=O)OC1)C2c1cccc(Br)c1 (stereo unspecified) ?
Outgoing: 55.7 µM

Incoming: // returns reported TGI for input NS(=O)(=O)c1ccc(NCc2cnc3ccccc3c2)cc1
Outgoing: > 100 µM

Incoming: Return reported TGI; argument: O=C1CCC2(c3ccc(F)cc3)Nc3ncncc3N12 (stereo unspecified)
Outgoing: > 10 µM

---

# Test system: IGROV1 ovarian
# TEST_DESCRIPTION: NCI tumour cell line growth inhibition, 48 h
Readings of TGI for the listed molecules

// below: answered molecules
| MOLECULE | TESTED_SYSTEM | TGI |
| --- | --- | --- |
| CCCN1CN(C(C(=O)N[C@@H]2C(=O)N3C(C(=O)O)=C(C)CSC23)c2ccccc2)CSC1=S (some centres not stated) | IGROV1 ovarian | > 100 µM |
| CN(C)C1COC2Cc3ccccc3C1O2 (configuration not stated) | IGROV1 ovarian | > 100 µM |
| O=C(Nc1ccc(Cl)cc1Cl)/C(Cl)=C1/Sc2ccccc2NC1=O | IGROV1 ovarian | > 100 µM |
| Cc1cc2c(=O)cc(-c3ccc(C(=O)O)cc3)oc2c(C(=O)O)c1C | IGROV1 ovarian | > 100 µM |
| COc1cc(C2SC(N)=Nc3c2c(C)nn3C(=O)Cc2ccccc2)ccc1O (configuration not stated) | IGROV1 ovarian | > 100 µM |
| Cc1cc(NC(=O)C(=O)Cc2nc3ccccc3s2)ccc1Cl | IGROV1 ovarian | > 100 µM |
| N=C1N=Nc2nc(C3(c4nc5n(c4O)C(=N)N=N5)Cc4ccccc4C3=O)c(O)n21 (configuration not stated) | IGROV1 ovarian | > 100 µM |
| COc1cc([C@@H]2c3cc4c(cc3[C@H](O)[C@H]3COC(=O)[C@@H]23)OCO4)cc(OC)c1OC | IGROV1 ovarian | > 100 µM |

Let us move to another entry and its TGI.
Incoming: Which TGI value belongs to CN(C)N1C(=O)CC2(CCN(CCCC(=O)c3ccc(F)cc3)CC2)C1=O ?
Outgoing: > 100 µM

---

# Tested on: A498 renal
# TEST_DESCRIPTION: NCI tumour cell line growth inhibition, 48 h
In this section, each of the compounds is paired with its reported TGI.

| COMPOUND | TGI |
| --- | --- |
| CCCC[Si](CCCC)(CCCC)O[C@@H](/C=C/C(=O)OCC)[C@H](Cc1ccccc1)O[Si](CCCC)(CCCC)CCCC | > 100 µM |
| O=CN/C=C/c1ccccc1O | > 100 µM |
| CC1(CC(=O)OC(C#C[Si](C)(C)C)Cc2ccccc2)OCCO1 (configuration not stated) | > 100 µM |
| Cn1cc(C2=C(c3cccc(NCC(O)CO)c3)C(=O)NC2=O)c2cc(Cl)ccc21 (configuration not stated) | 4.43 µM |
| CC(=O)/C=C/c1ccc(N(C)Cc2ccc(C(C)(C)C)cc2)cc1 | 251 µM |

Incoming: # get_value(readout='TGI', item= O=C(/C=C/c1ccc2c(c1)OCO2)c1ccccc(=O)c1O )
Outgoing: > 100 µM

Incoming: Quick one: TGI for Cc1ccc(OCCn2cc(Nc3ccccc3)c(=O)[nH]c2=O)cc1 ?
Outgoing: > 100 µM

Incoming: Return reported TGI; argument: O=C(Nc1ccc(F)cc1)c1cc2ccc(O)cc2oc1=Nc1cccc(F)c1
Outgoing: > 100 µM

Incoming: # input compound: CCCCC/C(=N\c1nc[nH]c1C(N)=O)OCC ; wanted: its TGI
Outgoing: > 100 µM

Incoming: Requested read-out: TGI. Entry: N#Cc1ccccc1/C=N/O
Outgoing: > 100 µM

Incoming: Which measured TGI value corresponds to O=C(CN1C(=O)c2ccccc2C1=O)OCC1CCCN2CCCCC12 (configuration not stated) ?
Outgoing: > 100 µM

Incoming: Look up TGI for this compound: O=c1nc2[nH]nc(-c3ccccc3)c2n[nH]1
Outgoing: > 100 µM

Incoming: Data request, read-out TGI, for CCC(CCCCC1CC[C@H]2CC(=O)C[C@@H]12)OC (some centres not stated)
Outgoing: > 100 µM

Incoming: For the compound shown here, COC(=O)[C@]1(C)CCC[C@]2(C)C3CC4OOC3(C=C4C(C)C)CCC21 (some centres not stated) , give the reported TGI.
Outgoing: 23.5 µM

Incoming: Which TGI is reported for this compound? O=C1C=Cc2c(I)sc(I)c21
Outgoing: > 100 µM
